Measured IC50 on ERK2 (Homo sapiens) follows.
Report the value in nM with no unit label.

Record excerpt, results attached:
COMPOUND	UNIT_SYMBOL	MEASUREMENT
COC[C@H]1Cn2cc(-c3nc(Nc4ccnn4C)ncc3C)nc2C(=O)N1Cc1cccc(Cl)c1	nM	0.9
C[C@H]1Cn2cc(-c3nc(Nc4ccnn4C)ncc3Cl)nc2C(=O)N1Cc1ccc(F)c(F)c1	nM	0.6
Cc1cnc(Nc2ccnn2C)nc1-c1cn2c(n1)C(=O)N(Cc1cccc(C(F)(F)F)n1)CC2	nM	2
Cc1cnc(Nc2ccnn2C)nc1-c1cn2c(n1)C(=O)N(Cc1cccc(C(F)F)n1)CC2	nM	0.6
Cc1cnc(Nc2ccnn2C)nc1-c1cn2c(n1)C(=O)N(Cc1cccc(Cl)c1)[C@@H](C)C2	nM	0.5

Entry `Cc1cnc(Nc2ccnn2C)nc1-c1cn2c(n1)C(=O)N(Cc1ccc(F)c(F)c1)[C@@H](C)C2` : reported IC50 = ?
0.4

Entry COC[C@H]1Cn2cc(-c3nc(Nc4ccnn4C)ncc3C)nc2C(=O)N1Cc1ccc(F)c(F)c1 [Example 18a] : reported IC50 = ?
0.6

Entry `Cc1cnc(Nc2ccnn2C)nc1-c1cn2c(n1)C(=O)N(Cc1cc(C(F)(F)F)ncn1)[C@@H](C)C2` : reported IC50 = ?
0.9

---

# Test system: phospho-p90RSK in A375 cell line
# PROTOCOL: A375 Phospho-p90RSK Cellular Assay
# Format: cell-based, human
# EXPERIMENTAL_CONTEXT: Homo sapiens, A-375; A375 cells, 2 hours incubation
Readings of pIC50 for the listed compounds
Value format note: pIC50 is -log10 of concentration (mol/L); just state the number.

Record excerpt, results attached:
COC[C@H]1Cn2cc(-c3nc(Nc4ccnn4C)ncc3C)nc2C(=O)N1Cc1cccc(C(F)F)n1 6.92
Cc1cnc(Nc2ccnn2C)nc1-c1cn2c(n1)C(=O)N(Cc1cc(F)cc(F)c1)[C@@H](C)C2 7.72
COC[C@H]1Cn2cc(-c3nc(Nc4ccnn4C)ncc3C)nc2C(=O)N1Cc1cccc(Cl)c1 8.28
COC[C@H]1Cn2cc(-c3nc(Nc4ccnn4C)ncc3C)nc2C(=O)N1Cc1cccc(C(F)F)c1 8.10
Cc1cnc(Nc2ccnn2C)nc1-c1cn2c(n1)C(=O)N(Cc1ccc(F)c(Cl)c1)CC2 8.52

Param readout = pIC50; param system = phospho-p90RSK in A375 cell line; param query = `Cc1cnc(Nc2ccnn2C)nc1-c1cn2c(n1)C(=O)N(Cc1cccc(C(F)(F)F)n1)[C@H](C)C2` ; response: value
7.29

Param readout = pIC50; param system = phospho-p90RSK in A375 cell line; param query = `C[C@H]1Cn2cc(-c3ccnc(Nc4ccnn4C)n3)nc2C(=O)N1Cc1ccc(F)c(F)c1` ; response: value
6.20

---

# Test system: phospho-p90RSK in A375 cell line
# PROTOCOL: A375 Phospho-p90RSK Cellular Assay
# Assay type: cell-based, human
# EXPERIMENTAL_CONTEXT: Homo sapiens, A-375; A375 cells, 2 hours incubation
Criterion: IC50 strictly less than 80 nM. Met: Yes. Not met: No.

Check out these entries, answers already filled in.
COC[C@H]1Cn2cc(-c3nc(Nc4ccnn4C)ncc3C)nc2C(=O)N1Cc1cccc(OC)c1 No
C[C@H]1Cn2cc(-c3nc(Nc4ccnn4C)ncc3Cl)nc2C(=O)N1Cc1cccc(C(F)(F)F)n1 Yes
C[C@H]1Cn2cc(-c3nc(Nc4ccnn4C)ncc3Cl)nc2C(=O)N1Cc1cccc(C(F)F)n1 No
Cc1cnc(Nc2ccnn2C)nc1-c1cn2c(n1)C(=O)N(Cc1ccnc(C(F)(F)F)c1)[C@@H](C)C2 No

Is it true that IC50 reported for `COc1cc(CN2C(=O)c3nc(-c4nc(Nc5ccnn5C)ncc4C)cn3C[C@@H]2C)ccc1F` is less than 80 nM?
No

---

# Tested on: phospho-p90RSK in A375 cell line
# PROTOCOL: A375 Phospho-p90RSK Cellular Assay
# Assay type: cell-based, human
# EXPERIMENTAL_CONTEXT: Homo sapiens, A-375; A375 cells, 2 hours incubation
Readings of pIC50 for the listed molecules
Value format note: pIC50 is -log10 of concentration (mol/L); just state the number.

COC[C@H]1Cn2cc(-c3nc(Nc4ccnn4C)ncc3C)nc2C(=O)N1Cc1cccc(C(F)(F)F)n1 7.15
C[C@H]1Cn2cc(-c3nc(Nc4ccnn4C)ncc3Cl)nc2C(=O)N1Cc1ccnc(C(F)(F)F)n1 6.68
COc1cccc(CN2C(=O)c3nc(-c4nc(Nc5ccnn5C)ncc4C)cn3C[C@@H]2C)c1 7.40

// next item, pIC50 requested
Param readout = pIC50; param system = phospho-p90RSK in A375 cell line; param query = `Cc1cnc(Nc2ccnn2C)nc1-c1cn2c(n1)C(=O)N(Cc1cccc(C(F)F)n1)[C@@H](C)C2` ; response: value
6.89

---

# STUDY_TARGET: ERK2 (Homo sapiens, UniProt P28482)
# Construct: made in house
# Sequence (P28482 whole entry): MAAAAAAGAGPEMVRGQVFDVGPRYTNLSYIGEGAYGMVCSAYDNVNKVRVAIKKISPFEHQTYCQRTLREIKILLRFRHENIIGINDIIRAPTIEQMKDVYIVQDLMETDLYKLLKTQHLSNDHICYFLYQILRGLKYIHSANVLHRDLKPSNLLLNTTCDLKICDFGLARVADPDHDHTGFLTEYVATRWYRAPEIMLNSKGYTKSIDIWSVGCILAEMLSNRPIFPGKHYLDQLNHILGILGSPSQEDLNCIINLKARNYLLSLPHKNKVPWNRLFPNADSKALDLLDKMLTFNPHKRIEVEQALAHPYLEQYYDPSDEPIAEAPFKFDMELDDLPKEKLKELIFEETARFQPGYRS
# PROTOCOL: ERK2 Rapidfire Mass Spectrometry Inhibition of Catalysis Assay
# Format: biochemical
# EXPERIMENTAL_CONTEXT: 1.2 nM ERK2, 16 μM Erktide, 120 μM ATP (measured Km), 15 minute pre-incubation; read-out: ERK2 Mass Spectrometry Enzyme IC50
EXPERIMENTAL_READOUT: IC50

MOLECULE	IC50
Cc1cnc(Nc2ccnn2C)nc1-c1cn2c(n1)C(=O)N(Cc1ccnc(C(F)(F)F)c1)[C@@H](C)C2 [Example 30]	0.7 nM
Cc1cnc(Nc2ccnn2C)nc1-c1cn2c(n1)C(=O)N(Cc1cccc(C(F)(F)F)n1)[C@@H](C)C2 [Example 27]	0.8 nM

Entry C[C@H]1Cn2cc(-c3nc(Nc4ccnn4C)ncc3Cl)nc2C(=O)N1Cc1cccc(C(F)(F)F)n1 [Example 10] : reported IC50 = ?
1.1 nM

Entry COc1cccc(CN2C(=O)c3nc(-c4nc(Nc5ccnn5C)ncc4Cl)cn3C[C@@H]2C)c1 [Example 7] : reported IC50 = ?
0.5 nM

---

# Tested on: phospho-p90RSK in A375 cell line
# PROTOCOL: A375 Phospho-p90RSK Cellular Assay
# Type: cell-based, human
# EXPERIMENTAL_CONTEXT: Homo sapiens, A-375; A375 cells, 2 hours incubation
EXPERIMENTAL_READOUT: pIC50
Value format note: pIC50 is -log10 of concentration (mol/L); just state the number.

Record excerpt, results attached:
COc1cccc(CN2C(=O)c3nc(-c4nc(Nc5ccnn5C)ncc4Cl)cn3C[C@@H]2C)c1 7.42
Cc1cnc(Nc2ccnn2C)nc1-c1cn2c(n1)C(=O)N(Cc1cccc(C(F)F)n1)[C@H](C)C2 7.19
Cc1cnc(Nc2ccnn2C)nc1-c1cn2c(n1)C(=O)N(Cc1cccc(C(F)(F)F)n1)CC2 6.96

// next item, pIC50 requested
Entry `C[C@H]1Cn2cc(-c3nc(Nc4ccnn4C)ncc3Cl)nc2C(=O)N1Cc1ccc(F)c(F)c1` : reported pIC50 = ?
7.60

---

# System: phospho-p90RSK in A375 cell line
# PROTOCOL: A375 Phospho-p90RSK Cellular Assay
# Format: cell-based, human
# EXPERIMENTAL_CONTEXT: Homo sapiens, A-375; A375 cells, 2 hours incubation
EXPERIMENTAL_READOUT: IC50 (nM)
Report the value in nM with no unit label.

Cc1cnc(Nc2ccnn2C)nc1-c1cn2c(n1)C(=O)N(Cc1cc(C(F)(F)F)ncn1)[C@@H](C)C2 99
Cc1cnc(Nc2ccnn2C)nc1-c1cn2c(n1)C(=O)N(Cc1cccc(C(F)F)c1)CC2 24
Cc1cnc(Nc2ccnn2C)nc1-c1cn2c(n1)C(=O)N(Cc1cccc(OC(F)F)c1)[C@@H](C)C2 110
Cc1cnc(Nc2ccnn2C)nc1-c1cn2c(n1)C(=O)N(Cc1cc(C(F)F)ccn1)[C@@H](C)C2 140
COC[C@H]1Cn2cc(-c3nc(Nc4ccnn4C)ncc3C)nc2C(=O)N1Cc1cc(F)cc(F)c1 32

Param readout = IC50; param system = phospho-p90RSK in A375 cell line; param query = `Cc1cnc(Nc2ccnn2C)nc1-c1cn2c(n1)C(=O)N(Cc1cccc(C(F)(F)F)n1)[C@@H](C)C2` ; response: value
77

Param readout = IC50; param system = phospho-p90RSK in A375 cell line; param query = `Cc1cnc(Nc2ccnn2C)nc1-c1cn2c(n1)C(=O)N(Cc1cccc(C(F)F)c1)[C@@H](C)C2` ; response: value
11

Param readout = IC50; param system = phospho-p90RSK in A375 cell line; param query = `COC[C@@H]1Cn2cc(-c3nc(Nc4ccnn4C)ncc3C)nc2C(=O)N1Cc1ccc(F)c(F)c1` ; response: value
93

Param readout = IC50; param system = phospho-p90RSK in A375 cell line; param query = `Cc1cnc(Nc2ccnn2C)nc1-c1cn2c(n1)C(=O)N(Cc1cccc(Cl)c1)[C@@H](C)C2` ; response: value
5.3

Param readout = IC50; param system = phospho-p90RSK in A375 cell line; param query = `Cc1cnc(Nc2ccnn2C)nc1-c1cn2c(n1)C(=O)N(Cc1cc(C(F)(F)F)ccn1)[C@@H](C)C2` ; response: value
130

Param readout = IC50; param system = phospho-p90RSK in A375 cell line; param query = `Cc1cccc(CN2CCn3cc(-c4ccnc(Nc5ccnn5C)n4)nc3C2=O)n1` ; response: value
17000

Param readout = IC50; param system = phospho-p90RSK in A375 cell line; param query = `C[C@H]1Cn2cc(-c3ccnc(Nc4ccnn4C)n3)nc2C(=O)N1Cc1cccc(Cl)c1` ; response: value
86
